target: T1, human vascular endothelial growth factor receptor-2 Fc chimera (KDR-Fc) (human, UniProt P35968 20-764); experiment: BIAcore, target-Fc immobilized
T1 construct: range 1-764; purchased from R&D Systems; also called hKDR; human VEGF-R2-Fc; not shown: human IgG1 Fc
T1 sequence (P35968 20-764 limits assumed, change not shown, form in doubt): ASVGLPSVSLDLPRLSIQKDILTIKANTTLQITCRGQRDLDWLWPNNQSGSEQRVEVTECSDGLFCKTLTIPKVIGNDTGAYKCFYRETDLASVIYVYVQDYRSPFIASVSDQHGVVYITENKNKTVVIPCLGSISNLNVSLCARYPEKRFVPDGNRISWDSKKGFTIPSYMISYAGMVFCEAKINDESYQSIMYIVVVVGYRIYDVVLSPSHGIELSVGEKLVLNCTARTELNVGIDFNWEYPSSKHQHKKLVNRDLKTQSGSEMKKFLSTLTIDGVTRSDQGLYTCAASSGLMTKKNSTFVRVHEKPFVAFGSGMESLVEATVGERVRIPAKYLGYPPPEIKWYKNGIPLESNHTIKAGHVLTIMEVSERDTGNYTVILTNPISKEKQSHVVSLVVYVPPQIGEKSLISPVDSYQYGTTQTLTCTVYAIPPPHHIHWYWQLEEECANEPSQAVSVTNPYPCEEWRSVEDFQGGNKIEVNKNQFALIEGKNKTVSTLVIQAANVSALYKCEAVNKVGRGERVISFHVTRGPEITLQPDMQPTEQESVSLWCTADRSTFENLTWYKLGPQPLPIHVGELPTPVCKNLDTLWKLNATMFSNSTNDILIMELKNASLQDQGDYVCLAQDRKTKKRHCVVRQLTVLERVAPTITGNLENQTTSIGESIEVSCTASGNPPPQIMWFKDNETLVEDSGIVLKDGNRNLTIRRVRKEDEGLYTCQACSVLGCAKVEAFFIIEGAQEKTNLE
Label Satisfied when kon is strictly below 200000 M⁻¹ s⁻¹; otherwise label Not satisfied.

Look over these answered cases.
BINDER: 159(Q8L) (designed binder, clone 159 with Q8 corrected to the wild type L; His6-tagged E. coli protein in BIAcore, tag left out; also called Clone 159 (Q8L)) VSDVPRDLEVVAATPTSLLISWRHPHFPTRYYRITYGETGGNSPVQEFTVPLQPPAATISGLKPGVDYTITGYAVTMAQSGHELFTPISINYRT
QUALITATIVE LABEL: Satisfied
//
BINDER: E19 (designed binder, Del 1-8 10Fn3 clone; Flag-tagged in vitro translated protein in the radioactive assay, His6-tagged E. coli protein in BIAcore and cell assays; tags left out) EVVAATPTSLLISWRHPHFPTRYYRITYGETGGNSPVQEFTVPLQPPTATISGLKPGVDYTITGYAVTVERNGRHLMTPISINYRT
QUALITATIVE LABEL: Not satisfied
//
BINDER: E26 (designed binder, Del 1-8 10Fn3 clone; Flag-tagged in vitro translated protein in the radioactive assay, His6-tagged E. coli protein in BIAcore and cell assays; tags left out) EVVAATPTSLLISWRHPHFPTRYYRITYGETGGNSPVQEFTVPLQPPTATISGLKPGVDYTITGYAVTVERNGRELMTPISINYRT
QUALITATIVE LABEL: Satisfied

Attention now turns to another entry.
## Task Please indicate whether the reported kon of E18 (designed binder, Del 1-8 10Fn3 clone; Flag-tagged in vitro translated protein in the radioactive assay, His6-tagged E. coli protein in BIAcore and cell assays; tags left out) EVVAATPTSLLISWRHPHFPTRYYRITYGETGGNSPVQEFTVPLQPPTATISGLKPGVDYTITGYAVTVERNGRELNTPISINYRT is strictly below 200000 M⁻¹ s⁻¹.
## Result Not satisfied

All values here come from patent US20140179896A1.
